# test_target: T1, human mature TGFβ1 (Homo sapiens, UniProt P01137)
# T1 construct: Transforming Growth Factor-beta 1, human, mature form (cut from the precursor); also called TGFb1; source: bought: PeproTech
# T1 sequence (P01137 279-390): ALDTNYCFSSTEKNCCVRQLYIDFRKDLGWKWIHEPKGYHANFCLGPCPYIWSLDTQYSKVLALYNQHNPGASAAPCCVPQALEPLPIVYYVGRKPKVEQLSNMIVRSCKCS
# test_description: SPR; Biacore T200; antibody captured on a Protein A sensor chip (about 90 RU); mature TGFβ isoform injected, five-fold dilutions 0.008 nM to 5 nM; HBS-EP pH 7.4, 150 mM NaCl; 37 °C; 100 μl/min; 3 min association, 60 min dissociation; one-to-one Langmuir model, global fit
# assay_conditions: both partners purified

{"binder": "humanized 4A11 variant 7 (antibody, V domains shown, rbt4A11 CDRs (Kabat and Chothia) and rabbit Vernier residues (VH positions 2, 24, 37, 48, 49, 67, 71, 78, 91, 105) grafted on human germline IGHV4-59*06; has S19, S79, K81 (Kabat numbering); rbt4A11 CDRs and rabbit Vernier residues (VL positions 2, 4, 36, 43, 58) grafted on human germline IGKV3-20*01; human IgG1; also called h4A11.v7; v7; source: Expi293F, transient, purified (Protein A, SEC)) VH: EQQLQESGPGLVKPSETLSLTCTVTGFSLSSYTVNWVRQPAGKGLEWIGYISYGGSAYYASWANGRFTISKDSSKNQVSLKLSSVTAADTAVYFCARHMQVGGAPTGSMAAFDPWGPGTLVTVSS VL: EAVLTQSPGTLSLSPGERATLSCQSSQSVYNNNYLSWFQQKPGQPPRLLIYGASTLTSGVPDRFSGSGSGTDFTLTISRLEPEDFAVYYCAGGYSGSSDKYAFGGGTKVEIK", "Kd": "> 5 nM"}
{"binder": "humanized 4A11 variant 1 (antibody, V domains shown, as the VH of m7 (h4A11.v2): rbt4A11 CDRs and rabbit Vernier residues grafted on human germline IGHV3-48*01; rbt4A11 CDRs and rabbit Vernier residues (VL positions 2, 4, 36, 43, 58) grafted on human germline IGKV4-1*01; human IgG1; also called h4A11.v1; v1; source: Expi293F, transient, purified (Protein A, SEC)) VH: EQQLVESGGGLVQPGGSLRLSCAVSGFSLSSYTVNWVRQAPGKGLEWIGYISYGGSAYYASWANGRFTISKDSAKNSVYLQMNSLRAEDTAVYFCARHMQVGGAPTGSMAAFDPWGPGTLVTVSS VL: DAVLTQSPDSLAVSLGERATINCQSSQSVYNNNYLSWFQQKPGQPPKLLIYGASTLTSGVPDRFSGSGSGTDFTLTISSLQAEDVAVYYCAGGYSGSSDKYAFGGGTKVEIK", "Kd": "> 5 nM"}
{"binder": "humanized 4A11 variant 3 (antibody, V domains shown, as the VH of m12 (h4A11.v7): rbt4A11 CDRs and rabbit Vernier residues grafted on human germline IGHV4-59*06; as the VL of m6 (h4A11.v1): rbt4A11 CDRs and rabbit Vernier residues grafted on human germline IGKV4-1*01; human IgG1; also called h4A11.v3; v3; source: Expi293F, transient, purified (Protein A, SEC)) VH: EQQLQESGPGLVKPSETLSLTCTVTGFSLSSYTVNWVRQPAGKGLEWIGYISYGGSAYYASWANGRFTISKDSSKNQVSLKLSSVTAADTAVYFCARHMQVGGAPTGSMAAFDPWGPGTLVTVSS VL: DAVLTQSPDSLAVSLGERATINCQSSQSVYNNNYLSWFQQKPGQPPKLLIYGASTLTSGVPDRFSGSGSGTDFTLTISSLQAEDVAVYYCAGGYSGSSDKYAFGGGTKVEIK", "Kd": "> 5 nM"}
{"binder": "humanized 4A11 variant 6 (antibody, V domains shown, as the VH of m7 (h4A11.v2): rbt4A11 CDRs and rabbit Vernier residues grafted on human germline IGHV3-48*01; rbt4A11 CDRs and rabbit Vernier residues (VL positions 2, 4, 36, 43, 58) grafted on human germline IGKV2-24*01; human IgG1; also called h4A11.v6; v6; source: Expi293F, transient, purified (Protein A, SEC)) VH: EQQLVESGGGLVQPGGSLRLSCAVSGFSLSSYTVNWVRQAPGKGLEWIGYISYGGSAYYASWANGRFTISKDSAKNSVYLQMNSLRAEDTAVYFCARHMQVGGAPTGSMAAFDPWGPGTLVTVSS VL: DAVLTQTPLSSPVTLGQPASISCQSSQSVYNNNYLSWFQQRPGQPPRLLIYGASTLTSGVPDRFSGSGAGTDFTLKISRVEAEDVGVYYCAGGYSGSSDKYAFGGGTKVEIK", "Kd": "> 5 nM"}
